pIC50: −log10 of the molar value.
Published pIC50 for Proto-oncogene tyrosine-protein kinase Src (Homo sapiens), assembled from different documents, is shown next.
quantity-measured: pIC50

- compound: "CC(=O)Cn1cc(-c2ccc(C)cc2)nn1"
  quantity-measured: "pIC50"
  censoring-operator: "<"
  measured-result: 3.82
- compound: "Nc1c(-c2ccc(F)cc2)c(-c2ccncc2)nn1-c1ccc(C(F)(F)F)cc1"
  quantity-measured: "pIC50"
  censoring-operator: "="
  measured-result: 5.17
- compound: "COc1cc2ncnc(Nc3ccc(-c4nc5ccccc5s4)cc3)c2cc1OC"
  quantity-measured: "pIC50"
  censoring-operator: "<"
  measured-result: 5.00
- compound: "CC(CCO)n1nc(-c2ccc3nc(OC4CC4)ccc3c2)c(C(N)=O)c1N (centres undefined)"
  quantity-measured: "pIC50"
  censoring-operator: "<"
  measured-result: 5.00
- compound: "COc1ccc(-c2ccc(NC(=O)Nc3cccc(C(F)(F)F)c3)cc2)c2c(N)noc12"
  quantity-measured: "pIC50"
  censoring-operator: "<"
  measured-result: 4.30
- compound: "COc1cc(Nc2c(C#N)cnc3cc(/C=C/CCN4CCOCC4)c(OC)cc23)c(Cl)cc1Cl"
  quantity-measured: "pIC50"
  censoring-operator: "="
  measured-result: 8.32
- compound: "O=C(O)C[C@@H](Cc1ccc(OP(=O)(O)O)cc1)C(=O)N[C@@H](CO)c1nc(Cc2ccc(Cl)c(Cl)c2)no1"
  quantity-measured: "pIC50"
  censoring-operator: "="
  measured-result: 4.27
- compound: "COc1cc(Nc2c(C#N)cnc3cc(OCCCn4ccnc4)c(OC)cc23)c(Cl)cc1Cl"
  quantity-measured: "pIC50"
  censoring-operator: "="
  measured-result: 8.68
- compound: "COCCN1CC(C(N)=O)(N(C)Cc2cc3c(Nc4cccc(Cl)c4F)ncnc3cc2OC)C1"
  quantity-measured: "pIC50"
  censoring-operator: "<"
  measured-result: 5.00
